Each recorded value in this set is attributed to patent US5250542A.

target: mu receptor (Rattus norvegicus, UniProt P33535); construct: rat whole brain minus cerebellum for mu was homogenized; from tissue; host or cells: brain of male Sprague Dawley rats, whole brain minus cerebellum, homogenate fraction; assay: opioid receptor binding assay, [3H] NAL (tritiated naloxone), mu receptor; design: species or system rat (Male Sprague Dawley), brain minus cerebellum; settings: [3H] naloxone 0.5 nM, pH 7.4, 37° C., 20 min
Sequence (P33535 whole entry): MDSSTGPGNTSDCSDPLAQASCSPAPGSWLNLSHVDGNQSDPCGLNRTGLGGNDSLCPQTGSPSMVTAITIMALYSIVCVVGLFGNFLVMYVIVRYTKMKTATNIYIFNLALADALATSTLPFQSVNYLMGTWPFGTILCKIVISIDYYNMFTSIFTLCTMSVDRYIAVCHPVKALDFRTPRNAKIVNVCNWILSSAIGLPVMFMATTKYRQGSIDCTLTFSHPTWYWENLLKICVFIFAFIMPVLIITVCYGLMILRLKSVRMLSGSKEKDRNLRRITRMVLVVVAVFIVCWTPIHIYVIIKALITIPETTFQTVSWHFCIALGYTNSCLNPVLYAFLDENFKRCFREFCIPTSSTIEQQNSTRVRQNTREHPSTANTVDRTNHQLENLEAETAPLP
Structures can show the parent of a compound that is named as a salt.
MEASURE: Ki (nM)
Output spec: scalar in nM, unitless text.

Answered examples (4):
Lab book: Ki of CNC(=O)CNC(=O)C(CCN1CC[C@@](C)(c2cccc(O)c2)[C@@H](C)C1)c1ccccc1 (relative stereo) [Example 13, monohydrochloride] noted as 0.43

Lab book: Ki of CCOC(=O)C(CCN1CC[C@@](C)(c2cccc(O)c2)[C@@H](C)C1)c1ccccc1 (relative stereo) [Example 8A, hydrochloride] noted as 2.01

Lab book: Ki of CC(C)COC(=O)CNC(=O)C(Cc1ccccc1)CN1CC[C@@](C)(c2cccc(O)c2)[C@@H](C)C1 (some centres unmarked) [Example 54, monohydrochloride] noted as 2.27

Lab book: Ki of C[C@H]1CN(CCC(C(=O)O)c2ccccc2)CC[C@@]1(C)c1cccc(O)c1 (relative stereo) [Example 8B, hydrochloride] noted as 0.27

Here is another compound to look at.
Lab book: Ki of CCOC(=O)CCCNC(=O)C(Cc1ccccc1)CN1CC[C@@](C)(c2cccc(O)c2)[C@@H](C)C1 (some centres unmarked) [Example 61, monohydrochloride monohydrate] noted as 1.91

====

biological target: mu receptor (Rattus norvegicus, UniProt P33535); construct: rat whole brain minus cerebellum for mu was homogenized; from tissue; host or cells: brain of male Sprague Dawley rats, whole brain minus cerebellum, homogenate fraction; assay: opioid receptor binding assay, [3H] NAL (tritiated naloxone), mu receptor; design: species or system rat (Male Sprague Dawley), brain minus cerebellum; settings: 20 min, 10 nM test compound; [3H] naloxone 0.5 nM; read-out: % displacement at 10 nM
MEASURE: inhibition at 0.01 µM (%)
Output spec: scalar in %, unitless text.

Answered examples (3):
Reported inhibition at 0.01 µM (mu receptor (Rattus norvegicus, UniProt P33535)) for entry CCOC(=O)CNC(=O)C(Cc1ccccc1)CN1CC[C@@](C)(c2cccc(OC)c2)[C@@H](C)C1 (single isomer, unassigned) is 21

Reported inhibition at 0.01 µM (mu receptor (Rattus norvegicus, UniProt P33535)) for entry CCCCCOC(=O)CNC(=O)C(Cc1ccccc1)CN1CC[C@@](C)(c2cccc(O)c2)[C@@H](C)C1 (relative stereo) is 74

Reported inhibition at 0.01 µM (mu receptor (Rattus norvegicus, UniProt P33535)) for entry CNC(=O)COC(=O)CNC(=O)C(Cc1ccccc1)CN1CC[C@@](C)(c2cccc(O)c2)[C@@H](C)C1 (relative stereo) is 93

More entries:
Reported inhibition at 0.01 µM (mu receptor (Rattus norvegicus, UniProt P33535)) for entry CCOC(=O)C(Cc1ccccc1)CN1CC[C@@](C)(c2cccc(OC)c2)[C@@H](C)C1 (single isomer, unassigned) [Example 78B] is 0

Reported inhibition at 0.01 µM (mu receptor (Rattus norvegicus, UniProt P33535)) for entry CNC(=O)CNC(=O)C(Cc1ccccc1)CN1CC[C@@](C)(c2cccc(OC)c2)[C@@H](C)C1 (single isomer, unassigned) is 31

Reported inhibition at 0.01 µM (mu receptor (Rattus norvegicus, UniProt P33535)) for entry CNC(=O)C(Cc1ccccc1)CN1CC[C@@](C)(c2cccc(OC)c2)[C@@H](C)C1 (single isomer, unassigned) is 0

====

molecular target: mu receptor (Rattus norvegicus, UniProt P33535); construct: rat whole brain minus cerebellum for mu was homogenized; from tissue; host or cells: brain of male Sprague Dawley rats, whole brain minus cerebellum, homogenate fraction; experiment: opioid receptor binding assay, [3H] NAL (tritiated naloxone), mu receptor; set-up: species or system rat (Male Sprague Dawley), brain minus cerebellum; details: 20 min, read-out: % displacement at 100 nM, 100 nM test compound; [3H] naloxone 0.5 nM
Structures can show the parent of a compound that is named as a salt.
Attribute: inhibition at 0.1 µM
Output spec: scalar in %, unitless text.

Lab book: inhibition at 0.1 µM of CNC(=O)CCNC(=O)C(Cc1ccccc1)CN1CC[C@@](C)(c2cccc(O)c2)[C@@H](C)C1 (stereo partly drawn) [Example 59, monohydrochloride] noted as 100

Lab book: inhibition at 0.1 µM of C[C@H]1CN(CCC(C(=O)O)C2CCCCC2)CC[C@@]1(C)c1cccc(O)c1 (relative stereo) [Example 9B, hydrochloride] noted as 93

Lab book: inhibition at 0.1 µM of C[C@H]1CN(CC(Cc2ccccc2)C(=O)NCC(N)=O)CC[C@@]1(C)c1cccc(O)c1 (stereo partly drawn) [Example 46, monohydrochloride monohydrate] noted as 95

More entries:
Lab book: inhibition at 0.1 µM of CCNC(=O)CNC(=O)C(CCN1CC[C@@](C)(c2cccc(O)c2)[C@@H](C)C1)C1CCCCC1 (relative stereo) [Example 22, hydrochloride] noted as 96

Lab book: inhibition at 0.1 µM of C[C@H]1CN(CCC(C(=O)N(C)C)c2ccccc2)CC[C@@]1(C)c1cccc(O)c1 (relative stereo) [Example 10, hydrochloride] noted as 100

Lab book: inhibition at 0.1 µM of C[C@H]1CN(CCC(C(=O)O)c2ccccc2)CC[C@@]1(C)c1cccc(O)c1 (relative stereo) [Example 8B, hydrochloride] noted as 100

====

biological target: mu receptor (Rattus norvegicus, UniProt P33535); construct: rat whole brain minus cerebellum for mu was homogenized; from tissue; host or cells: brain of male Sprague Dawley rats, whole brain minus cerebellum, homogenate fraction; assay: opioid receptor binding assay, [3H] NAL (tritiated naloxone), mu receptor; design: species or system rat (Male Sprague Dawley), brain minus cerebellum; conditions: 20 min, read-out: % displacement at 10 nM, 10 nM test compound; [3H] naloxone 0.5 nM
Structures can show the parent of a compound that is named as a salt.
Attribute: inhibition at 0.01 µM
Output spec: scalar in %, unitless text.

Answered examples (5):
Lab book: inhibition at 0.01 µM of CC(C)COC(=O)CNC(=O)C(Cc1ccccc1)CN1CC[C@@](C)(c2cccc(O)c2)[C@@H](C)C1 (stereo partly drawn) [Example 54, monohydrochloride] noted as 78

Lab book: inhibition at 0.01 µM of CC(C)OC(=O)CNC(=O)C(Cc1ccccc1)CN1CC[C@@](C)(c2cccc(O)c2)[C@@H](C)C1 (stereo partly drawn) [Example 51, monohydrochloride] noted as 85

Lab book: inhibition at 0.01 µM of CNC(=O)CCCNC(=O)C(CC1CCCCC1)CN1CC[C@@](C)(c2cccc(O)c2)[C@@H](C)C1 (stereo partly drawn) [Example 41, monohydrochloride] noted as 100

Lab book: inhibition at 0.01 µM of CNC(=O)CNC(=O)C(CCN1CC[C@@](C)(c2cccc(O)c2)[C@@H](C)C1)C1CCCCC1 (relative stereo) [Example 21, hydrochloride] noted as 96

Lab book: inhibition at 0.01 µM of CCOC(=O)CNC(=O)C(CC1CCCCC1)CN1CC[C@@](C)(c2cccc(O)c2)[C@@H](C)C1 (relative stereo) [Example 29, monohydrochloride] noted as 98

Here is another molecule to look at.
Lab book: inhibition at 0.01 µM of C[C@H]1CN(CC(Cc2ccccc2)C(=O)NCC(=O)NCC(=O)O)CC[C@@]1(C)c1cccc(O)c1 (relative stereo) [Example 68, monohydrate] noted as 79

====

biological target: peripheral opioid receptors (Mus musculus, UniProt P42866); construct: Mice maintained (6 mice/cage) on 0.01M saccharin water with 1 g/1 morphine sulfate; from tissue; host or cells: living morphine-maintained mice (in vivo test; endogenous receptor); assay: precipitated diarrhea in morphine-maintained mice (peripheral opioid activity) and comparison with the writhing test; type: in vivo; details: mouse, 0.5 h, morphine-maintained mice; antagonist subcutaneous or oral; 30 min observation
Sequence (P42866 whole entry): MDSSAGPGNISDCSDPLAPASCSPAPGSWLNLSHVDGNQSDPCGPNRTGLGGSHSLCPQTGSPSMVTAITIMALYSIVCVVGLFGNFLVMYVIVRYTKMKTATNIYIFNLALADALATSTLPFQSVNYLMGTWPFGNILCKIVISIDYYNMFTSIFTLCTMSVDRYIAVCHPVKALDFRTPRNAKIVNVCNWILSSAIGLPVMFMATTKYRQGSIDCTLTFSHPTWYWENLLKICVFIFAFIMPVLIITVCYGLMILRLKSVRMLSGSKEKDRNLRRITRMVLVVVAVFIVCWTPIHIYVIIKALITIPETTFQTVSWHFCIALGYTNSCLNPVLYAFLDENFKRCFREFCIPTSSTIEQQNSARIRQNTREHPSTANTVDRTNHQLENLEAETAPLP
Where a name gives a salt, the structure may show the parent alone.
Label key: 1 means ED50 under 0.05 mg/kg; -1 means ED50 of 0.05 mg/kg or more.

Previously resolved entries follow.
Ask: Dear reviewer, please state whether CC(C)COC(=O)CNC(=O)C(Cc1ccccc1)CN1CC[C@@](C)(c2cccc(O)c2)[C@@H](C)C1 (stereo partly drawn) [Example 54, monohydrochloride] has ED50 strictly beneath 0.05 mg/kg.
Reply: 1

Ask: Dear reviewer, please state whether C[C@H]1CN(CC(Cc2ccccc2)C(=O)NCC(=O)OCC2CCCCC2)CC[C@@]1(C)c1cccc(O)c1 (stereo partly drawn) [Example 53, monohydrochloride] has ED50 strictly beneath 0.05 mg/kg.
Reply: -1

Ask: Dear reviewer, please state whether C[C@H]1CN(CCC(C(=O)NCC(N)=O)C2CCCCC2)CC[C@@]1(C)c1cccc(O)c1 (relative stereo) [Example 20, hydrochloride monohydrate] has ED50 strictly beneath 0.05 mg/kg.
Reply: 1

Ask: Dear reviewer, please state whether CCNC(=O)CNC(=O)C(Cc1ccccc1)CN1CC[C@@](C)(c2cccc(OC)c2)[C@@H](C)C1 (single isomer, unassigned) has ED50 strictly beneath 0.05 mg/kg.
Reply: 1

More entries:
Ask: Dear reviewer, please state whether C[C@H]1CN(CCC(C(=O)NCCC(N)=O)C2CCCCC2)CC[C@@]1(C)c1cccc(O)c1 (relative stereo) [Example 17, monohydrochloride] has ED50 strictly beneath 0.05 mg/kg.
Reply: -1
